Can you tell me kon for the items I'm about to list?
Assay target: T1, human PD-1 (soluble PD-1 protein, R&D Systems) (human, UniProt Q15116 25-170, limits assumed)
T1 construct: the kinetics paragraphs say only 'PD-1' / 'antigen'; also called hPD-1; soluble PD-1 immunogen
T1 sequence (Q15116 25-170 limits assumed): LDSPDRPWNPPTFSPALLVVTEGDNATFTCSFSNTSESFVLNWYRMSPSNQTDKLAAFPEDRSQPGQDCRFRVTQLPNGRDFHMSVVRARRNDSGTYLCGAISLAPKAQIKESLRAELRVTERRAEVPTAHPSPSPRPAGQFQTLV
Assay name: BLI (ForteBio), mAb on AHC biosensor, PD-1 as analyte
Numbers only, in M⁻¹ s⁻¹.

Past entries and their recorded results:
A19 (antibody, V domains shown, Tested as full-length mAb expressed in CHO cells; also called antibody 19; L19H19) VH: QVQLVESGGGVVQPGRSLRLSCAASGFTFSNYGMYWVRQAPGKGLEWVAVIWYDGSNKYYADSVKGRFTISRDNSKNTLYLQMNSLRAEDTAVYYCAGGGDILTGDYWGQGTLVTVSS VL: DIQMTQSPSSLSASVGDRVTITCRASQGIRNDLGWYQQKPGKAPKRLIYAASSLQSGVPSRFSGSGSGTEFTLTISSLQPEDFATYYCLQYKSYLYTFGQGTKLEIK :: 18700
A25 (antibody, V domains shown, Tested as full-length mAb expressed in CHO cells; also called antibody 25; L25H25) VH: QVQLVESGGGVVQPGRSLRLSCAASGFTFSSYGMHWVRQAPGKGLEWVGVIWYDGSIKYYADSVKGRFTISRDNSMNTLNLQMNSLRAEDTAVYYCAGDILTGSFDYWGQGTLVTVSS VL: EIVLTQSPATLSLSPGERATLSCRASQSVSSYLAWYQQKPGQAPRLLIYDASNRATGIPARFSGSGSGTDFTLTISSLEPEDFAVYYCQQRNNWPYTFGQGTKLEIK :: 73100

Next:
Task: I would be grateful if you could share the reported kon for A20 (antibody, V domains shown, Tested as full-length mAb expressed in CHO cells; also called antibody 20; L20H20) VH: EVQLVESGGGLVQPGGSLRLSCAASGFTFSFYDMHWVRQAKGKGLEWVSAIGTAGDTYYPGSVKGRFTISRENAKNSLYLQMNSLRAGDTAVYYCARGYCSTTNCFADYFDYWGQGTLVTVSS VL: DIQLTQSPSFLSASVGDRVTITCRASQGISNYLAWYQQKPGKAPKLLIYAASTLQSGVPSRFSGSGSGTEFTLTISSLQPEDFATYYCHQLNSFPLTFGGGTKVEIK .
Result: 13000
